Molecular target: HIV reverse transcriptase (Human immunodeficiency virus type 1 group M subtype B)
Construct: 0.05 units of HIV reverse transcriptase (Amersham T3610Y); purchased Amersham T3610Y
Test: Reverse transcriptase inhibition assay with streptavidin-coated polystyrene europium beads and CCD imaging
Assay type: biochemical
PROPERTY_LABEL: IC50 (nM)
# value in nM; strip the unit string

Quote IC50 with test system HIV reverse transcriptase (Human immunodeficiency virus type 1 group M subtype B) for `O=C(O)C1=CC(=C(c2ccc(O)c(C(=O)O)c2)c2ccc(O)c(C(=O)O)c2)C=CC1=O`
230
